- TESTED SYSTEM: UniProt O54735
- PROTOCOL DETAILS: Compound was tested for inhibition of stimulation of rat aortic smooth muscle cells (RSMC)
// reported EC50 for each item listed

{"MOL SMILES": "CCCOc1ccc(-c2n[nH]c(-c3ccccc3)n2)cc1-c1nc2c(c(C)nn2CC)c(=O)[nH]1", "EC50": "< 10 nM"}
{"MOL SMILES": "CCCOc1ccc(Nc2nnc(N)[nH]2)cc1-c1nc2c(c(C)nn2C)c(=O)[nH]1", "EC50": "> 10000 nM"}
{"MOL SMILES": "CCCOc1ccc(-c2csc(C)n2)cc1-c1nc2c(c(C)nn2CC)c(=O)[nH]1", "EC50": "< 100 nM"}
{"MOL SMILES": "CCCOc1ccc(-c2nccs2)cc1-c1nc2c(c(C)nn2C)c(=O)[nH]1", "EC50": "< 100 nM"}
{"MOL SMILES": "CCCOc1ccccc1-c1nc2c(c(C)nn2CC)c(=O)[nH]1", "EC50": "< 100 nM"}
{"MOL SMILES": "CCCOc1ccc(-c2n[nH]c(-c3ccccc3)n2)cc1-c1nc2c(c(C)nn2C)c(=O)[nH]1", "EC50": "< 100 nM"}
{"MOL SMILES": "CCCOc1ccc(-c2ccc(C)s2)cc1-c1nc2c(c(C)nn2C)c(=O)[nH]1", "EC50": "< 100 nM"}
{"MOL SMILES": "CCCOc1ccccc1-c1nc(O)c2c[nH]nc2n1", "EC50": "> 10000 nM"}
{"MOL SMILES": "CCCOc1ccc(NC(=O)c2cccs2)cc1-c1nc2c(c(C)nn2C)c(=O)[nH]1", "EC50": "< 10 nM"}
{"MOL SMILES": "CCCOc1ccc(-c2nc(C)cs2)cc1-c1nc2c(c(C)nn2CC)c(=O)[nH]1", "EC50": "< 100 nM"}

The reported numbers originate from ChEMBL document CHEMBL1129550.
